Molecular target: human mitochondrial DNA-polymerase (POLG) (Homo sapiens, UniProt P54098)
Sequence (P54098 1-1239): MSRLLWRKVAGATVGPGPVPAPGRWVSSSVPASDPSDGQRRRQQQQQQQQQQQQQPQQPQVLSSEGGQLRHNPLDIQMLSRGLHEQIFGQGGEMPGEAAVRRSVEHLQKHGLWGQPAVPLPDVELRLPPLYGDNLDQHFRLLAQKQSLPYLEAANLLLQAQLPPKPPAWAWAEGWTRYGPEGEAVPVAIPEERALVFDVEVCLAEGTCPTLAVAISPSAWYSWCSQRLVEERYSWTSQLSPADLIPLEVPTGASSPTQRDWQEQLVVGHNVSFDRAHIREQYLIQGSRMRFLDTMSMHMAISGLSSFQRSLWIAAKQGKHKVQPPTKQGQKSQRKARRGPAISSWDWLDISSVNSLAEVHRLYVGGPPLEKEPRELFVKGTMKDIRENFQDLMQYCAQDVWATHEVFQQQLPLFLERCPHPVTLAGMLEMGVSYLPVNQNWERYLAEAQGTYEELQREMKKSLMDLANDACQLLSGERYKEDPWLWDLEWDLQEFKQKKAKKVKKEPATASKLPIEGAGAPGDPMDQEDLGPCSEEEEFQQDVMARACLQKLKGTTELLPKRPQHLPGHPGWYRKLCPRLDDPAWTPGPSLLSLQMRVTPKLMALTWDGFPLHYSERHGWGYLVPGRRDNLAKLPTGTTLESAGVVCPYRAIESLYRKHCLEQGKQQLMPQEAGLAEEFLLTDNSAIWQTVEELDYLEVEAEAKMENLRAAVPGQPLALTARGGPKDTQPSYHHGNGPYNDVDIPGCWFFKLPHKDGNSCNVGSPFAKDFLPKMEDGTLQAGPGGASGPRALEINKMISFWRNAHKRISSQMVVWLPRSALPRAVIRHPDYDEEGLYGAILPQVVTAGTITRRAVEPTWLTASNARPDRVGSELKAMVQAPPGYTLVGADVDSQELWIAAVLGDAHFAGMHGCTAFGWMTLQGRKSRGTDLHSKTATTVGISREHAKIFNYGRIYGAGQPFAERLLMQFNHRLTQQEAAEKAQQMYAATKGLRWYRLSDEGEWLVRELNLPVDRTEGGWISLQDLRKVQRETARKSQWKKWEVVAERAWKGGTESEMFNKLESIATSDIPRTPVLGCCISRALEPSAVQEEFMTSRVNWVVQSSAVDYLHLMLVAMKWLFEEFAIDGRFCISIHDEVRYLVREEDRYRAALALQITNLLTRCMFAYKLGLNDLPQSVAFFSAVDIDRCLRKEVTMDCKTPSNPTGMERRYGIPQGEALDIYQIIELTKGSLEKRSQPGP
Sequence (Q9UHN1 1-485 partner): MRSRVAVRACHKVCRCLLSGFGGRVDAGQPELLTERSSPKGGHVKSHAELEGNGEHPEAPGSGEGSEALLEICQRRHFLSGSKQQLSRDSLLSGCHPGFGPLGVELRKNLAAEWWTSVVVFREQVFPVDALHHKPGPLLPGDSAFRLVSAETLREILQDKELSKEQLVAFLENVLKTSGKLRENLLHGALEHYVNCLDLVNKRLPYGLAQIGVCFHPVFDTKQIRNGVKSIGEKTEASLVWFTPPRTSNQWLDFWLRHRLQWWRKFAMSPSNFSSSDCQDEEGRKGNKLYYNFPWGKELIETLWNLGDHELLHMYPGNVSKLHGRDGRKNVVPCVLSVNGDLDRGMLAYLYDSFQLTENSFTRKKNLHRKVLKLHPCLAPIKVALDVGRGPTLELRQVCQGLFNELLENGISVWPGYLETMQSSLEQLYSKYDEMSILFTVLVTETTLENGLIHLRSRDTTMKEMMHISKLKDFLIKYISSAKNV
observable: pIC50
Hey, just a heads up that pIC50 is the negative log base 10 of the concentration in molar.

Input: Field: pIC50 (human mitochondrial DNA-polymerase (POLG) (Homo sapiens, UniProt P54098)). Entry: Cc1cn([C@H]2C[C@H](O)[C@@H](COP(=O)(O)OP(=O)(O)OP(=O)(O)O)O2)c(=O)[nH]c1=S [4-Thiothymidine-5′-Triphosphate]
Output: 4.27
